- assayProtocol: Toxicity liver stage against HepG2, at 10uM
- Type: cell-based
- Parameters: test concentration 10 uM, cell line HepG2-A16-CD81EGFP
- runConditions: human, HepG2-A16-CD81EGFP cells; read-out: INHIBITION
The molecules listed here are annotated with their cytotoxicity at 10 µM.
reportedMetric: cytotoxicity at 10 µM (%)

# molecule, numericValue
measured = [
    ("CCN(CC)S(=O)(=O)N1CCCN(CC(=O)NC(C)C)CC1", 2.75),
    ("CCc1nc(CN2CCOC(Cn3nc(C)nc3C)C2)no1 (stereo not drawn)", -5.38),
    ("O=C(NC1CCCC1)N1C[C@H]2CN(c3ccncc3)C[C@@]2(C(=O)O)C1", 11.3),
    ("CSCCN(C)C(=O)C1(c2ccc(F)cc2F)CCOCC1", 0.53),
    ("Cc1ccccc1OCC(=O)NCC(c1ccc(N(C)C)cc1)N(C)C (stereo not drawn)", -30.2),
    ("CC(CNC(=O)Nc1ccc(F)cc1Br)N1CCOCC1 (stereo not drawn)", 9.21),
    ("COc1ccc(C2CCCN2c2cnc3ccccc3n2)c(OC)c1 (stereo not drawn)", 7.54),
    ("CC(=O)Nc1ncc(S(=O)(=O)Nc2ccc(F)cc2F)s1", 11.1),
    ("CCn1cc(C(=O)N2CCCC(c3noc(C)n3)C2)cn1 (stereo not drawn)", 2.17),
    ("O=C(c1cnc(-c2cccs2)s1)N1CCCC(n2ccnc2)C1 (stereo not drawn)", -12.8),
    ("NC(=O)c1cc(C2CCCN(C(=O)CCc3ccncc3)C2)n[nH]1 (stereo not drawn)", -8.99),
    ("CC(C)c1nnc(NC(=O)CCc2cc(F)ccc2F)[nH]1", -16.9),
    ("CC[C@H](C)Cn1nc(C2CCNCC2)n(Cc2ccccc2)c1=O", -5.82),
    ("O=C(CCC1CCCO1)NCCCC(=O)Nc1ccc(Cl)cc1 (stereo not drawn)", -0.649),
    ("COC[C@]1(O)CCN(C(=O)c2cccc(CN(C)C)c2)CC1(C)C", 3.26),
    ("CNc1nc2c(c(C(=O)N3CCCC3)n1)CN(C(=O)CCSC)CC2", -114),
    ("CC(C)n1c2ccccc2c2c1cc(C(=O)N(C)C)n2C(=O)N(C)C", -95),
    ("COc1c(C)cnc(CSc2nnc(C)s2)c1C", -4.66),
    ("CN(Cc1cnccn1)C(=O)Nc1cc(F)cc(N2CCCC2)c1", 1.8),
    ("Clc1cccc(Cl)c1CN(CCCN1CCOCC1)Cc1cccnc1", -0.52),
    ("NS(=O)(=O)CCNC(=O)CCc1cc(Br)cs1", -3.39),
    ("Cc1cc(N2CCCN(Cc3ccc(C)o3)CC2)ccn1", -5.51),
    ("c1cnc(N2CCOCC3(CCN(c4cnccn4)CC3)C2)nc1", -103),
    ("COc1ccc(C2CCCCCN2S(N)(=O)=O)cc1 (stereo not drawn)", 8.87),
    ("CCO[C@@H]1CO[C@@]2(CCCN(Cc3scnc3C)C2)C1", -9.06),
    ("Cc1nccc(NCc2cncc3c2CCN(CCN(C)C)C3)n1", -104),
    ("O=C(c1ccc(Br)o1)N1CCCCC1Cn1cccn1 (stereo not drawn)", -5.31),
    ("Cc1cc(C(=O)N2CCc3nnc(N)cc3C2)c(C)n1C1CC1", -3.71),
    ("CC1CCCN(CCCNC(=O)Cc2csc(-c3ccoc3)n2)C1 (stereo not drawn)", 3.39),
    ("Oc1ccc(N(CCc2ccccc2)CCn2cncn2)cc1", 4.21),
    ("O=C(c1c(F)cccc1Br)N1CCCOCC1", 6.69),
    ("COCc1cc(O)nc(C2CCCN(Cc3ccc(OC)cc3)C2)n1 (stereo not drawn)", -1.25),
    ("O=C(NCc1nnc2n1C(C(=O)NC1CC1)CC2)c1ccc(Cl)cc1Cl (stereo not drawn)", 5.06),
    ("O=C(CC(F)(F)F)N1CCC2(CCCN(c3nncs3)C2)C1 (stereo not drawn)", -105),
    ("CCCS(=O)(=O)N1CCC(c2ccc(OC)cc2)CC1", 2.02),
    ("CCOc1ccc(CN[C@@H]2COC[C@H]2c2ccc(F)cc2)cc1", 17.1),
    ("Cn1c2c(c(=O)n1C)CN(C(=O)c1ccncc1F)CCC2", -95),
    ("NC1CCc2c(ccc(=O)n2Cc2ccncc2)C1 (stereo not drawn)", -4.16),
    ("COCc1nnc(C(=O)N2CCCC(O)C2)o1 (stereo not drawn)", 1.31),
    ("O=C(c1ccc(Cl)cc1)N1CCC(N2CCCNC2=O)CC1", 8.55),
    ("CCN1CCN(C[C@@H]2CN(c3ncccc3C(F)(F)F)C[C@@H]2CO)CC1", -4.47),
    ("Cc1ccc(OCC2CCCN(c3cc(C(N)=O)ccn3)C2)cc1 (stereo not drawn)", 11.1),
    ("CC1CCCCN1C(=O)CN1CCN(c2ccc3nncn3n2)CC1 (stereo not drawn)", 1.48),
    ("N#Cc1ccc(SCCC(=O)N(Cc2cccnc2)C2CC2)cc1", 12.3),
    ("Cc1cccc(C(C(=O)NCCCc2nnc3ccccn23)N(C)C)c1 (stereo not drawn)", -7.88),
    ("Cc1nc(NC2CCCC2)cc(C2CCN2C(=O)c2cccnc2)n1 (stereo not drawn)", 0.848),
    ("COCCN1C[C@@H]2CC[C@H]1CN(Cc1nc3ccccc3n1C)C2", -11.2),
    ("Cn1cccc(NC(=O)N2CCC(CSc3ccccc3)C2)c1=O (stereo not drawn)", 40.2),
]
